Test system: S. cerevisiae expressing PfHSP40, growth rescue, plate reader
assay-info: Yeast growth rescue from Plasmodium falciparum HSP40 toxicity, dose response confirmatory, plate reader (AID 540271);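 further: yeast growth read after three days of incubation at 30 °C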
Active and inactive are the calls of the source. How the calls were made is not given here.
Use one of these outcomes when replying: active, inactive

Look over these answered cases.
# compound, assigned-class
data = [
    ("Clc1ccc(OCc2nc(-c3ccncc3)no2)c(Br)c1", "active"),
    ("Cc1ccc(-n2nnnc2SCC(=O)N2CCc3ccccc3C2)c(C)c1", "active"),
    ("Nc1[nH]c(=O)ncc1F", "active"),
]

Task: So what was the verdict on CCOC(=O)c1cc2c(=Cc3ccc(N(C)C)cc3)c3ccccc3n2[n+]1C in this test?
Output: active

Task: Record lookup: outcome of this test for Cn1cnc([N+](=O)[O-])c1S(=O)(=O)Oc1ccc(Cl)cc1 ?
Output: active

Task: Give the logged outcome of this assay for the following compound: O=C(CC1CC2CCC1C2)Nc1nc(-c2ccccn2)cs1 (stereo unspecified)
Output: active

Task: Hi, sorry to bother you, what did the test record for O=C(COc1ccc([N+](=O)[O-])cc1)Nc1nc(-c2ccccn2)cs1 ?
Output: active

Task: Called result for CCCCCCCCCCOC(=O)Cn1c(COc2ccccc2)[n+](C)c2ccccc21
Output: inactive

Task: Outcome? O=C(Cc1ccccc1F)Nc1nc(-c2ccc(F)c(F)c2)cs1
Output: active

Task: For O=C(O)c1c(NC(=O)N2CCCC2)sc2c1CCCC2 , what call appears in the results of this test?
Output: active

Task: Short answer needed: outcome of this test for O=C(NCc1ccncc1)c1ccccc1Nc1ccc(SC(F)F)cc1 ?
Output: active
